subject of test: Estrogen receptor (Homo sapiens) (UniProt P03372)
Sequence (P03372 whole entry, looked up): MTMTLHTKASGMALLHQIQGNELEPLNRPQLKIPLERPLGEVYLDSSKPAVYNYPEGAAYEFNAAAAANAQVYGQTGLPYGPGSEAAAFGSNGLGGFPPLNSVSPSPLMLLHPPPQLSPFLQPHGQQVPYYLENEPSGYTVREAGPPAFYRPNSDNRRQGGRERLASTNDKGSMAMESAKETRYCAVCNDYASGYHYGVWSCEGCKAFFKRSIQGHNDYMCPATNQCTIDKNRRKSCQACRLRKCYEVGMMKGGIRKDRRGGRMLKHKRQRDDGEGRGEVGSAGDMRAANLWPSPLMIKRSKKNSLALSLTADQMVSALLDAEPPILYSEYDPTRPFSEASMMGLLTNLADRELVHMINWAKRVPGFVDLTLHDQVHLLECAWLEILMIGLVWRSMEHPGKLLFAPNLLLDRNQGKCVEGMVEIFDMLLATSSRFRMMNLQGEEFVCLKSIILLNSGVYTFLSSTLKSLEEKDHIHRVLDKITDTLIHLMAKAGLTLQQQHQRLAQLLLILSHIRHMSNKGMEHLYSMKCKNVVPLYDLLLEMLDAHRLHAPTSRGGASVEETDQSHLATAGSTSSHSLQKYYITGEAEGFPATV
assay summary: ERalpha ligand binders by competition, primary screen, cell-based, Cos7 ERalpha-GFP, flow cytometry (AID 1211)
setup conditions: fluorescent ligand competition, binding inhibition, at 0.1 µM, stronger effect = higher value
Everything with inhibition of ligand binding lower than 30% is Criterion not met; everything else, including exactly 30%, is Criterion met.

compound: CC(=O)Nc1ccc(N=Cc2nc(-c3ccc(C)cc3)oc2O)cc1
qualitative label: Criterion met

Prompt line: Does the reported inhibition of ligand binding for `CCOc1cccc2cc(-c3nnc(NCc4ccco4)s3)c(=O)oc12` fall at or above the 30% mark?
Response line: Criterion met

Prompt line: Does the reported inhibition of ligand binding for `CN(C)c1ccc(N=Cc2ccco2)cc1` fall at or above the 30% mark?
Response line: Criterion not met

Prompt line: Does the reported inhibition of ligand binding for `CCc1oc2c(C)c(O)ccc2c(=O)c1-c1ccc2ccccc2n1` fall at or above the 30% mark?
Response line: Criterion met

The reported numbers originate from PubChem BioAssay AID1211.
